System: BT-549 breast
RUN_DESCRIPTION: NCI-60 one-dose screen, 48 h
TEST_CONDITIONS: 10 µM
About 83,000 compounds went through this panel and 20% of them were active in at least one assay; those are over-represented in the sample as a whole. The source made the active and inactive calls. Rule for the calls: active = growth percent below 10; inactive = the rest.
Possible outcomes: y for active, n for inactive

| COMPOUND | STUDY_TARGET | QUALITATIVE_LABEL |
| --- | --- | --- |
| O=C(Nc1nc(-c2ccccc2)nc2c1sc(=S)n2-c1ccccc1)C(F)(F)F | BT-549 breast | n |
| CCOC(=O)Cn1c(=O)c2sc3ncccc3c2n2nnc(-c3ccccc3)c12 | BT-549 breast | n |
| Cc1nn(-c2ccccc2)c2nc(Cl)c(C=O)c(-c3ccccc3)c12 | BT-549 breast | n |
| O=c1cn[nH]c2ccc(Br)cc12 | BT-549 breast | n |
| CC(C)(C)OC(=O)CN1CCc2c(sc3ncnc(N/N=C/c4ccccc4Br)c23)C1 | BT-549 breast | n |
| C=C(NC(=O)C(=C)NC(=O)c1csc(C2=NC3c4csc(n4)C4NC(=O)c5csc(n5)C(C(C)(O)C(C)O)NC(=O)C5CSC(=N5)C(=CC)NC(=O)C(C(C)O)NC(=O)c5csc(n5)C3(CC2)NC(=O)C(C)NC(=O)C(=C)NC(=O)C(C)NC(=O)C(C(C)CC)NC2C=Cc3c(C(C)O)cc(nc3C2O)C(=O)OC4C)n1)C(N)=O (stereo not given) | BT-549 breast | y |
| CCOC(=O)CC(S(=O)(=O)c1ccccc1)S(=O)(=O)c1ccccc1 | BT-549 breast | n |
| C=CCNCCN1C(=O)c2ccc3c4c(ccc(c24)C1=O)C(=O)N(CCNCC=C)C3=O | BT-549 breast | n |
| COc1ccc2c(c1)OC(N)=C(C#N)C2c1cc(OC)c(OC)c(OC)c1 (stereo not given) | BT-549 breast | y |
| COc1ccc(/C(C#N)=C/c2cccc(OC)c2OC)cc1 | BT-549 breast | n |
| N#CC1=CC2CN(Cc3ccccc3)C1C1C(=O)N(c3ccccc3)C(=O)C21 (stereo not given) | BT-549 breast | n |
| O=S(=O)(Oc1ccc(-c2ccc3sccc3c2)cc1)c1ccc(F)cc1 | BT-549 breast | n |
| CCN(CC)CC(=O)N(CC)c1ccc(C)c(Cl)c1 | BT-549 breast | n |
| O=C(/C=C/C=C/c1c(C2CC2)nc2ccccc2c1-c1ccc(F)cc1)c1cccs1 | BT-549 breast | y |
| O=C(CCCSc1nc(-c2ccc(Cl)cc2)cc(-c2ccc(Cl)cc2)n1)NO | BT-549 breast | n |
| COc1ccc2nc3cc(Cl)ccc3c(N)c2c1 | BT-549 breast | y |
| Brc1ccc2c(c1)-c1ccccc1C1=NCCN12 | BT-549 breast | n |
| COc1cc(N)c2ncccc2c1SC | BT-549 breast | n |
| NS(=O)(=O)c1ccc(Br)cc1 | BT-549 breast | n |
| CS(=O)(=O)c1nccc(-c2c(-c3cccc(OCCN4CCOCC4)c3)nc3sccn23)n1 | BT-549 breast | n |
